- System: SK-MEL-5 melanoma
- Measurement Protocol: NCI tumour cell line growth inhibition, 48 h
Consider the following compounds; for each one, report its TGI.

Dear reader, for each entry below, please note its TGI.
1. CN(CC(=O)O)c1ccc(/C=C/c2ccnc3ccccc23)cc1
2. CCOC(=O)NC(C(=O)OCC)C(F)(F)F (stereo unspecified)

["31.7 µM", "> 100 µM"]

Dear reader, for each entry below, please note its TGI.
1. COc1cc(Cn2c(=S)ss/c2=N\C(=S)N(C)C)cc(OC)c1OC
2. c1cc(CCN2CCCCC2)ccn1
3. O=C(Cn1cc(F)c(=O)[nH]c1=O)C12CC3CC(CC(C3)C1)C2
4. COc1ccn2c(C(C)=O)cc(C(=O)c3ccc4c(c3)Sc3ccccc3N4)c2c1

1. 56.4 µM
2. > 100 µM
3. > 100 µM
4. 0.449 µM

Dear reader, for each entry below, please note its TGI.
1. CC1CC2C(=O)N(c3ccccc3)C(=O)C2c2c1c1ccccc1n2Cc1ccccc1 (stereo unspecified)
2. O=C(O)CCC(NC(=O)c1ccc(Nc2cnc3ccc(C(F)(F)F)cc3n2)cc1)C(=O)O (stereo unspecified)
3. O=C(N/N=C/c1ccc([N+](=O)[O-])cc1)c1cccc2nc3ccccc3nc12
4. CCc1cccc2c3c(sc12)C(c1ccc(Cl)cc1)C(C#N)=C(N)O3 (stereo unspecified)
5. Cc1nc(-n2[nH]c(C)c(CCO)c2=O)[nH]c(=O)c1CCO
6. COc1ccc(N=Nc2ccc3oc(=O)c(C(=O)Nc4ccccc4)cc3c2)cc1
7. Fc1cccc2cc3ccc4cccc5ccc(c12)c3c45

> 100 µM
> 100 µM
> 100 µM
12 µM
> 100 µM
> 10 µM
> 100 µM

----------
- Test system: HOP-62 NSCLC
- Measurement Protocol: NCI tumour cell line growth inhibition, 48 h
Consider the following compounds; for each one, report its TGI.

Illustrative cases are given below, each with its answer.
| Compound | System Under Test | Observed Measurement |
| --- | --- | --- |
| O=C(O)CCC(NC(=O)c1ccc(Nc2cnc3ccc(C(F)(F)F)cc3n2)cc1)C(=O)O (stereo not drawn) | HOP-62 NSCLC | > 100 µM |
| C=CCOC1OC(CS(=O)(=O)O)C(O)C(O)C1O (stereo not drawn) | HOP-62 NSCLC | > 100 µM |
| [C-]#[O+].[C-]#[O+].[C-]#[O+].[C-]#[O+].[Ir].[Ir].[O-]c1ccc2ccccc2c1C=Nc1ccc(N=Cc2c([O-])ccc3ccccc23)cc1 | HOP-62 NSCLC | > 100 µM |
| COC(=O)C1CC=C(SC(=O)c2ccccc2)N1C(=O)c1ccccc1 (stereo not drawn) | HOP-62 NSCLC | > 100 µM |
| N#C/C(=C1\NN=C(N)C(c2ccc(Cl)cc2)=C1O)c1ccc(Cl)cc1 | HOP-62 NSCLC | > 100 µM |

Dear reader, for each entry below, please note its TGI.
1. c1cc(CCN2CCCCC2)ccn1
2. C=C1CCC2CC1[C@@H](C(=O)c1c[nH]c3ccccc13)NC2(C)C (stereo partly drawn)

["> 100 µM", "> 37.5 µM"]

----------
Consider the following compounds; for each one, report its TGI.
- System: MALME-3M melanoma
- Measurement Protocol: NCI tumour cell line growth inhibition, 48 h

Illustrative cases are given below, each with its answer.
| Compound | System Under Test | TGI |
| --- | --- | --- |
| O=C1c2ccc3c4c5ccc(c24)C(=O)N1CCCOCCCCOCCCNCc1ccc(cc1)CNCCCOCCCCOCCCN(C3=O)C5=O | MALME-3M melanoma | 1.3 µM |
| Cc1nn(-c2ccccc2)c2c1CC(=O)Nc1ccccc1-2 | MALME-3M melanoma | > 100 µM |
| Nc1ccc(C2NC(=O)Cc3c2ccc2ccccc32)cc1 (stereo not given) | MALME-3M melanoma | > 100 µM |
| CCOC(=O)NC(C(=O)OCC)C(F)(F)F (stereo not given) | MALME-3M melanoma | > 100 µM |
| COc1cc(C[C@H]2C(=O)OC[C@@H]2Cc2ccc(OC)c(OC)c2)cc(OC)c1 | MALME-3M melanoma | > 100 µM |

Dear reader, for each entry below, please note its TGI.
1. Nc1ccn(CCO)c(=O)n1
2. CCOP1(=O)C=C(Sc2ccc([N+](=O)[O-])cc2[N+](=O)[O-])C(C)(C)O1 (stereo not given)
3. C(=C\c1nccs1)/c1cccc(/C=C/c2nccs2)n1
4. CCCCCCCCCCCCCCCCCCNc1ccn(C2OC(CO)C(O)C2O)c(=O)n1 (stereo not given)
5. CN(C(=O)c1ccc(Cl)cc1)C(=S)N1CCN(c2ccccn2)CC1
6. C=CN1C(=O)OC[C@@H]1c1ccccc1
7. COc1ccc(C(Cc2cc(OC)c(OC)c(OC)c2)C(=O)O)cc1 (stereo not given)

["> 100 µM", "31.4 µM", "> 50 µM", "> 100 µM", "> 100 µM", "> 100 µM", "> 100 µM"]

Dear reader, for each entry below, please note its TGI.
1. N#Cc1c(-c2ccc(Cl)cc2)c(C#N)c(=O)n(NS(=O)(=O)c2ccccc2)c1S
2. CC(O)(/C=C/c1ccccc1)P(=O)(O)c1ccccc1 (stereo not given)
3. CS(=O)(=O)OCCn1cnc2nc(NC(=O)c3ccccc3)[nH]c(=O)c21

1. > 100 µM
2. > 100 µM
3. > 100 µM

Recorded values, source PubChem BioAssay (NCI).
